Values from patent US20130251703A1

Target: human HER3 endogenously expressed on human cancer cells (SK-Br-3, BT-474, MCF7) (human, UniProt P21860 20-1342)
Assay: cell-based or functional assay
Output yes for BT-474 proliferation IC50 not less than 500 pM; output no otherwise.

// query Textbook exercise: given the entry MOR12615 (antibody, human IgG1, lambda, V domains shown, Tested as IgG) VH: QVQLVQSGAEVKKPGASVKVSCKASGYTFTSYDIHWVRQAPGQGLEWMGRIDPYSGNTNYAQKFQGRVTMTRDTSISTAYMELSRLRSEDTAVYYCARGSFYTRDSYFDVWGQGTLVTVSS VL: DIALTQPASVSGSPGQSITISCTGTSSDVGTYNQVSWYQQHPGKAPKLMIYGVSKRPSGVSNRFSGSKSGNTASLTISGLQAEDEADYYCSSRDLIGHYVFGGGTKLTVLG , state whether its BT-474 proliferation IC50 is greater than or equal to 500 pM.
// result no

// query Textbook exercise: given the entry MOR13666 (antibody, human IgG1, lambda, V domains shown, Tested as IgG) VH: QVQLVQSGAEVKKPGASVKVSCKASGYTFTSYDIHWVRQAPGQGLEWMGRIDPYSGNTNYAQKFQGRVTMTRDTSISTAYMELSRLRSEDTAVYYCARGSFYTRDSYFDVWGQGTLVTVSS VL: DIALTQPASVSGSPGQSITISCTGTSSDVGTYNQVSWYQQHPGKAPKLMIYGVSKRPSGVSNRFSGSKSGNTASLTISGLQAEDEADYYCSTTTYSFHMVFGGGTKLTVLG , state whether its BT-474 proliferation IC50 is greater than or equal to 500 pM.
// result yes

// query Textbook exercise: given the entry MOR12603 (antibody, human IgG1, kappa, V domains shown, Tested as IgG) VH: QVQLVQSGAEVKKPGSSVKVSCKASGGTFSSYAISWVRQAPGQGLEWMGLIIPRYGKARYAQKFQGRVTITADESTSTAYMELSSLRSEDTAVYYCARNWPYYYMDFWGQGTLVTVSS VL: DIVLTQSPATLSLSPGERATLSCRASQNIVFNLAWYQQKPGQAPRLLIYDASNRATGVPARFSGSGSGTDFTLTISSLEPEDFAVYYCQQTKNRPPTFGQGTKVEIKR , state whether its BT-474 proliferation IC50 is greater than or equal to 500 pM.
// result no

// query Textbook exercise: given the entry MOR13654 (antibody, human IgG1, lambda, V domains shown, Tested as IgG) VH: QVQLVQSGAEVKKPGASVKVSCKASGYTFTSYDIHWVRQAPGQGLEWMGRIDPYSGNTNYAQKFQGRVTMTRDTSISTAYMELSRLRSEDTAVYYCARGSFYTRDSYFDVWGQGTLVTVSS VL: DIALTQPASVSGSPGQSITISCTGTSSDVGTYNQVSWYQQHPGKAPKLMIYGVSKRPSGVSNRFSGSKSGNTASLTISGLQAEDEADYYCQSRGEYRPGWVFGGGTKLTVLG , state whether its BT-474 proliferation IC50 is greater than or equal to 500 pM.
// result yes

// query Textbook exercise: given the entry MOR13657 (antibody, human IgG1, lambda, V domains shown, Tested as IgG) VH: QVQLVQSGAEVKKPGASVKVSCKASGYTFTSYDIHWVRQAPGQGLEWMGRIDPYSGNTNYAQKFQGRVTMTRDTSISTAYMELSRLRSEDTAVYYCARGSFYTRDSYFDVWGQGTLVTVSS VL: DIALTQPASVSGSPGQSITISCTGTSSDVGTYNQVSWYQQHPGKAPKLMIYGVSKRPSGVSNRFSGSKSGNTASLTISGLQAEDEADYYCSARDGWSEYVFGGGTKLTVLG , state whether its BT-474 proliferation IC50 is greater than or equal to 500 pM.
// result no
